Catalogue of compounds with associated Crabgrass plant response rating
# Tested on: crabgrass
# ASSAY DETAILS: Test B pre/postemergence crabgrass
# Assay type: in vivo, Digitaria sanguinalis
# MEASUREMENT CONDITIONS: Postemergence, Rate 500 g/ha; scale of 0 to 10 where 0 is no effect and 10 is complete control
Please respond with just the number, no unit label.

Observe how each entry below is paired with its result.
INSERT INTO measurements (smiles_input, result_type, readout_value) VALUES
  ('CC(C)N(C(=O)n1oc(=O)n(CCC(F)(F)F)c1=O)c1ccc(F)cc1', 'Crabgrass plant response rating', 9),
  ('CC[Si](C)(C)Cn1c(=O)on(C(=O)N(c2ccc(F)cc2)C(C)C)c1=O', 'Crabgrass plant response rating', 8),
  ('CC(C)N(C(=O)n1oc(=O)n(C(CF)CF)c1=O)c1ccc(F)cc1', 'Crabgrass plant response rating', 9),
  ('CC(C)N(C(=O)n1oc(=O)n(CCC#N)c1=O)c1ccccc1', 'Crabgrass plant response rating', 9);

For the compound CCC=CCn1c(=O)on(C(=O)N(c2ccccc2)C(C)C)c1=O , what Crabgrass plant response rating is on record?
9

Next: C=C[Si](C)(C)Cn1c(=O)on(C(=O)N(c2ccc(Cl)cc2)C(C)C)c1=O
9
